Target: FAAH (Homo sapiens, UniProt O00519)
Construct: endogenous in cells
Sequence (O00519 whole entry): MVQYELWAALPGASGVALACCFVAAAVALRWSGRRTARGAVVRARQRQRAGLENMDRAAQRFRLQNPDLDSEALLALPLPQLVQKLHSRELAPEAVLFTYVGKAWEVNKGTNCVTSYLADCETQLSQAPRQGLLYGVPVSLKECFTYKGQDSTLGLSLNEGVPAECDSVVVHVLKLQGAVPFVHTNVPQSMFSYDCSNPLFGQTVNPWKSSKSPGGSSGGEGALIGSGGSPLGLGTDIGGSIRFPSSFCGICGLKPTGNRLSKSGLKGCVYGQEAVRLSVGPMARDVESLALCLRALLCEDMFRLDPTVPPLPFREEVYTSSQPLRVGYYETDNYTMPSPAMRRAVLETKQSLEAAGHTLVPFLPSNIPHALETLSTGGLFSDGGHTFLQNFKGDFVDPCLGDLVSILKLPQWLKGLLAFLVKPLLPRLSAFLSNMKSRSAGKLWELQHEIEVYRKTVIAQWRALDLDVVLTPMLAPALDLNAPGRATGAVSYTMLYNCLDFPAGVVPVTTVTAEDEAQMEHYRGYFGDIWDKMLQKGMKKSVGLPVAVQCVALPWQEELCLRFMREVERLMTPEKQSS
Assay: FAAH activity: hydrolysis of [3H]-AEA in U937 cell homogenates
Conditions: [3H]-AEA hydrolysis, final 100 nM AEA, read-out: FAAH inhibition IC50
# IC50 values compiled below

Solved entries (count: 2):
- molecule: "CC(C)CN1C(=O)/C(=C/c2ccc3c(c2)OCCO3)S/C1=N\\Cc1ccc(F)cc1 [24_P_X]"
  assayResult: "2.63 µM"
- molecule: "O=C1/C(=C/c2ccc3c(c2)OCCO3)S/C(=N\\c2ccccc2)N1c1ccc(F)cc1 [24_N_B]"
  assayResult: "> 100 µM"

Recorded result, Cc1ccc(N2C(=O)/C(=C/c3ccc(CO)cc3)S/C2=N\c2ccc(F)cc2)cc1 [22_B_A] , IC50: > 100 µM

So for COCc1cccc(/C=C2\S/C(=N\Cc3ccc(OC)cc3)N(c3ccccc3)C2=O)c1 [15_Q_N] , the logged IC50 turned out to be < 10 µM

Reported IC50 for CC(C)CN1C(=O)/C(=C/c2ccc3c(c2)OCCO3)S/C1=N\c1ccc(F)cc1 [24_B_X] was > 100 µM

For record Cc1ccc(/N=C2\S/C(=C\c3ccc4c(cnn4C)c3)C(=O)N2CC(C)C)cc1 [28_A_X] the listed IC50 is > 100 µM

Entry Cc1ccc(/N=C2\S/C(=C\c3ccc4[nH]cnc4c3)C(=O)N2c2ccc(C)cc2)cc1 [04_A_A] , IC50 reported as > 100 µM

// field: IC50; key: COc1ccc(/N=C2\S/C(=C\c3ccc4c(c3)OCCO4)C(=O)N2c2ccccc2)cc1 [24_F_N] ; value = > 100 µM

The molecule listed as Cc1ccc(/N=C2\S/C(=C\c3ccc4[nH]cnc4c3)C(=O)N2c2ccccc2)cc1 [04_A_N] has a reported IC50 of > 100 µM

Sure, the documented IC50 for Cc1ccc(/N=C2\S/C(=C\c3ccc4ncsc4c3)C(=O)N2CC(C)C)cc1 [32_A_X] is > 100 µM

Notebook: O=C1/C(=C/c2ccc3c(c2)OCCO3)S/C(=N\Cc2ccc(F)cc2)N1C1CCCCC1 [24_P_I] , IC50 read as 0.17 µM

Memo: Cc1ccc(N2C(=O)/C(=C/c3ccc4c(c3)OCCO4)S/C2=N\c2ccccc2)cc1 [24_N_A] , reported IC50: > 100 µM

# IC50 of COc1ccc(C/N=C2\S/C(=C\c3ccc4c(c3)OCCO4)C(=O)N2c2ccc(F)cc2)cc1 [24_Q_B] = 1.29 µM

IC50 in this record for COc1ccc(C/N=C2\S/C(=C\c3ccc4c(c3)OCCO4)C(=O)N2C2CCCCC2)cc1 [24_Q_I] : 0.037 µM

Record O=C1/C(=C/c2ccc3c(c2)OCCO3)S/C(=N\Cc2ccc(F)cc2)N1c1ccc(F)cc1 [24_P_B] , field IC50: 11.2 µM

Form field IC50, entry Cc1ccc(/N=C2\S/C(=C\c3ccc4c(cnn4C)c3)C(=O)N2C2CCCCC2)cc1 [28_A_I] : > 100 µM

The measurements presented in this section are drawn from patent US10155754B2.
